Reference for the values: ChEMBL document CHEMBL2417510

assay.notes: AUC in rat at 60 mg/kg, ip
Assay type: ADME, organism-based
Design: dose 60 mg/kg, route intraperitoneal
run.conditions: plasma
quantity.measured: AUC (ng·h/mL)
All answers are understood in ng·h/mL, so give the number only.

Use the examples below as a reference point.
compound | AUC (ng·h/mL)
CCC[C@@H](C(N)=O)[C@H](C)CC [(2R,3R)-SEC-BUTYLPROPYLACETAMIDE] | 26400
CCC[C@H](C(N)=O)[C@H](C)CC [(2S,3R)-SEC-BUTYLPROPYLACETAMIDE] | 12600
CCC[C@@H](C(N)=O)[C@@H](C)CC [(2R,3S)-SEC-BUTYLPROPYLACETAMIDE] | 15200
CCC[C@H](C(N)=O)[C@@H](C)CC | 32900

## Task Data request, read-out AUC, for CCCC(C(N)=O)C(C)CC (racemic)
## Result 31300
